Below, each of the molecules is paired with its reported relative viability value.
Tested on: NCI-H1793
Test: relative viability (nuclei count vs DMSO), 5 days (fraction); higher = more cells survive
Settings: first compound 0.01581 µM
endpoint: relative viability

INSERT INTO measurements (molecule, numericresult) VALUES
  ('COc1cc2nccc(Oc3ccc(NC(=O)Nc4cc(C)on4)c(Cl)c3)c2cc1OC [Tivozanib] + C[C@]1(O)C[C@@H](c2nc(-c3ccc4ccc(-c5ccccc5)nc4c3)c3c(N)nccn32)C1 [Linsitinib] (partner 1 µM)', 0.954),
  ('Nc1ccn([C@@H]2O[C@H](CO)[C@@H](O)[C@@H]2O)c(=O)n1 [Cytarabine] + Cc1nc(NC(=O)N2CCC[C@H]2C(N)=O)sc1-c1ccnc(C(C)(C)C(F)(F)F)c1 [Alpelisib] (partner 2 µM)', 0.687),
  ('Nc1ccn([C@@H]2O[C@H](CO)[C@@H](O)[C@@H]2O)c(=O)n1 [Cytarabine] + COc1cc2c(Oc3ccc(NC(=O)C4(C(=O)Nc5ccc(F)cc5)CC4)cc3F)ccnc2cc1OCCCN1CCOCC1 [Foretinib] (partner 0.25 µM)', 0.684),
  ('Nc1ccn([C@@H]2O[C@H](CO)[C@@H](O)[C@@H]2O)c(=O)n1 [Cytarabine] + Cc1cc(Nc2cc(N3CCN(C)CC3)nc(Sc3ccc(NC(=O)C4CC4)cc3)n2)n[nH]1 [Tozasertib] (partner 0.1 µM)', 0.32),
  ('COc1cc2nccc(Oc3ccc(NC(=O)Nc4cc(C)on4)c(Cl)c3)c2cc1OC [Tivozanib] + Nc1ncn([C@H]2C[C@H](O)[C@@H](CO)O2)c(=O)n1 [Decitabine] (partner 2 µM)', 0.518),
  ('Nc1ccn([C@@H]2O[C@H](CO)[C@@H](O)[C@@H]2O)c(=O)n1 [Cytarabine] + CCNC(=O)c1noc(-c2cc(C(C)C)c(O)cc2O)c1-c1ccc(CN2CCOCC2)cc1 [Luminespib] (partner 0.01 µM)', 0.186);

----------
Test system: NCI-H1703
Assay: relative viability (nuclei count vs DMSO), 5 days (fraction); higher = more cells survive
Details: first compound 1.265 µM
The molecules listed here are annotated with their relative viability.
endpoint: relative viability

INSERT INTO measurements (molecule, systemname, numericresult) VALUES
  ('Cc1sc2c(c1C)C(c1ccc(Cl)cc1)=N[C@@H](CC(=O)OC(C)(C)C)c1nnc(C)n1-2 [JQ1] + O=C(c1cc(Cc2n[nH]c(=O)c3ccccc23)ccc1F)N1CCN(C(=O)C2CC2)CC1 [Olaparib] (partner 8 µM)', 'NCI-H1703', 0.236),
  ('Cc1sc2c(c1C)C(c1ccc(Cl)cc1)=N[C@@H](CC(=O)OC(C)(C)C)c1nnc(C)n1-2 [JQ1] + CS(=O)(=O)CCNCc1ccc(-c2ccc3ncnc(Nc4ccc(OCc5cccc(F)c5)c(Cl)c4)c3c2)o1 [Lapatinib] (partner 2 µM)', 'NCI-H1703', 0.47),
  ('Cc1sc2c(c1C)C(c1ccc(Cl)cc1)=N[C@@H](CC(=O)OC(C)(C)C)c1nnc(C)n1-2 [JQ1] + Cc1nc(NC(=O)N2CCC[C@H]2C(N)=O)sc1-c1ccnc(C(C)(C)C(F)(F)F)c1 [Alpelisib] (partner 2 µM)', 'NCI-H1703', 0.26),
  ('Cc1sc2c(c1C)C(c1ccc(Cl)cc1)=N[C@@H](CC(=O)OC(C)(C)C)c1nnc(C)n1-2 [JQ1] + CS(=O)(=O)N1CCN(Cc2cc3nc(-c4cccc5[nH]ncc45)nc(N4CCOCC4)c3s2)CC1 [Pictilisib] (partner 1 µM)', 'NCI-H1703', 0.21),
  ('Cc1sc2c(c1C)C(c1ccc(Cl)cc1)=N[C@@H](CC(=O)OC(C)(C)C)c1nnc(C)n1-2 [JQ1] + NC(=O)Nc1cc(-c2cccc(F)c2)sc1C(=O)N[C@H]1CCCNC1 [AZD7762] (partner 0.2 µM)', 'NCI-H1703', 0.108),
  ('Cc1sc2c(c1C)C(c1ccc(Cl)cc1)=N[C@@H](CC(=O)OC(C)(C)C)c1nnc(C)n1-2 [JQ1] + C[C@@H](Oc1cc(-c2cnn(C3CCNCC3)c2)cnc1N)c1c(Cl)ccc(F)c1Cl [Crizotinib] (partner 1 µM)', 'NCI-H1703', 0.286);

// data source = the supplement of paper PMC10307832
